Data provenance: the supplement of paper PMC10567573

B1: C9orf25 (parent)
chain: LARKGSLKNGSMGSPVNQQPKKNN

variants of: B1; experiment: protein stability index of a GFP-peptide fusion (GPS, HEK-293T) (PSI 1-6); higher = more stable; conditions: c terminus: a fixed tail appended;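 also: lentivirally expressed fusions sorted by FACS into six bins by GFP to DsRed ratio, PSI derived from sequencing read proportions per bin multiplied by bin number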
protein stability index overview

variant-key | protein stability index
V16Y | 3.87
M12N | 4.43
M12H | 4.42
P20G | 4.5
N24S | 4.7
L7N | 4.55
G13K | 4.28
S11E | 4.96
R3W | 4.14
G5R | 4.34
P15E | 4.53
P15A | 4.42
N24H | 4.79
N9W | 3.21
N17S | 4.54
S11D | 4.8
L1C | 4.32
S14N | 4.81
K4W | 4.15
S6N | 4.69
L7T | 4.71
L7Q | 5.04
